# system: OATP1B1 (Homo sapiens, UniProt Q9Y6L6)
# Sequence (Q9Y6L6 whole entry): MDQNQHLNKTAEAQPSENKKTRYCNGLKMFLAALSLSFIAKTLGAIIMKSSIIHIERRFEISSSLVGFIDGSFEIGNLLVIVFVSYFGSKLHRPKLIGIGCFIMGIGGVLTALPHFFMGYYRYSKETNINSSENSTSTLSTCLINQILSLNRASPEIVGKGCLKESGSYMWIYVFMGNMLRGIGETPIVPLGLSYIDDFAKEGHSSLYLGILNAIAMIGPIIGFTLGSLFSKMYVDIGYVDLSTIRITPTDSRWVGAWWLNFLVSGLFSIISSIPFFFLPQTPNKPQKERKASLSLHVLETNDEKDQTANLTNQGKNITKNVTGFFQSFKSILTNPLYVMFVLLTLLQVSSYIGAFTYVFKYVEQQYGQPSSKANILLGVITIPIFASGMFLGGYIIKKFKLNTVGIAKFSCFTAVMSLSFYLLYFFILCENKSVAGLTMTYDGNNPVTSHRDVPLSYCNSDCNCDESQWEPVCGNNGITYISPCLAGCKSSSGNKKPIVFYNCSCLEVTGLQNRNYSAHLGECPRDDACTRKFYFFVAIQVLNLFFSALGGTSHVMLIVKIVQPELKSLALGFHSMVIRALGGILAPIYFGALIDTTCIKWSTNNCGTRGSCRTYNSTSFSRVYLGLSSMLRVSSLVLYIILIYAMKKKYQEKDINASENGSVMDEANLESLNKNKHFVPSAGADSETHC
# measurementNotes: OATP1B1 inhibition assay using 3H-E217βG as probe substrate, HEK293FT cells
# Assay type: cell-based
# Parameters: expressed in transfected cells
# testConditions: human, HEK293FT cells transfected with OATP1B1, probe 3H-E217βG (1 μM), at 100 μM, read-out: Maximum inhibition at highest test conc. (% of control)
measuredMetric: inhibition at 3 min, 100 µM

> print(dat)
                                   compound  result
1  O=C(NCc1c(F)cc(F)c(OS(=O)(=O)O)c1F)c1cn2c(c(O)c1=O)C(=O)N1C(C2)O[C@@H]2CC[C@H]1C2 (stereo partly shown) [Metabolite M20]     12%

###

Each entry below carries its recorded pIC50.
# system: OATP1B1 (Homo sapiens, UniProt Q9Y6L6)
# measurementNotes: OATP1B1 inhibition assay using Fluo-3 as probe substrate, CHO cells
# testConditions: OATP1B1, Fluo-3
pIC50: −log10 of the molar value.
measuredMetric: pIC50

compound	measuredMetric	qual	measuredNumber
O=C(NCc1c(F)cc(F)cc1F)c1cn2c(c(O[C@@H]3O[C@H](C(=O)O)[C@@H](O)[C@H](O)[C@H]3O)c1=O)C(=O)N1[C@H]3CC[C@H](C3)O[C@@H]1C2 [Metabolite M15]	pIC50	<	4.00
O=C(NCc1c(F)cc(F)c(OS(=O)(=O)O)c1F)c1cn2c(c(O)c1=O)C(=O)N1C(C2)O[C@@H]2CC[C@H]1C2 (stereo partly drawn) [Metabolite M20]	pIC50	=	4.05
O=C(NCc1c(F)cc(F)c(O)c1F)c1cn2c(c(O)c1=O)C(=O)N1[C@H]3CC[C@H](C3)O[C@@H]1C2 [Metabolite M23]	pIC50	=	4.00

###

# system: MRP2 (ABCC2) (Homo sapiens, UniProt Q92887)
# Construct: host or cells: membrane vesicle preparations
# Sequence (Q92887 whole entry): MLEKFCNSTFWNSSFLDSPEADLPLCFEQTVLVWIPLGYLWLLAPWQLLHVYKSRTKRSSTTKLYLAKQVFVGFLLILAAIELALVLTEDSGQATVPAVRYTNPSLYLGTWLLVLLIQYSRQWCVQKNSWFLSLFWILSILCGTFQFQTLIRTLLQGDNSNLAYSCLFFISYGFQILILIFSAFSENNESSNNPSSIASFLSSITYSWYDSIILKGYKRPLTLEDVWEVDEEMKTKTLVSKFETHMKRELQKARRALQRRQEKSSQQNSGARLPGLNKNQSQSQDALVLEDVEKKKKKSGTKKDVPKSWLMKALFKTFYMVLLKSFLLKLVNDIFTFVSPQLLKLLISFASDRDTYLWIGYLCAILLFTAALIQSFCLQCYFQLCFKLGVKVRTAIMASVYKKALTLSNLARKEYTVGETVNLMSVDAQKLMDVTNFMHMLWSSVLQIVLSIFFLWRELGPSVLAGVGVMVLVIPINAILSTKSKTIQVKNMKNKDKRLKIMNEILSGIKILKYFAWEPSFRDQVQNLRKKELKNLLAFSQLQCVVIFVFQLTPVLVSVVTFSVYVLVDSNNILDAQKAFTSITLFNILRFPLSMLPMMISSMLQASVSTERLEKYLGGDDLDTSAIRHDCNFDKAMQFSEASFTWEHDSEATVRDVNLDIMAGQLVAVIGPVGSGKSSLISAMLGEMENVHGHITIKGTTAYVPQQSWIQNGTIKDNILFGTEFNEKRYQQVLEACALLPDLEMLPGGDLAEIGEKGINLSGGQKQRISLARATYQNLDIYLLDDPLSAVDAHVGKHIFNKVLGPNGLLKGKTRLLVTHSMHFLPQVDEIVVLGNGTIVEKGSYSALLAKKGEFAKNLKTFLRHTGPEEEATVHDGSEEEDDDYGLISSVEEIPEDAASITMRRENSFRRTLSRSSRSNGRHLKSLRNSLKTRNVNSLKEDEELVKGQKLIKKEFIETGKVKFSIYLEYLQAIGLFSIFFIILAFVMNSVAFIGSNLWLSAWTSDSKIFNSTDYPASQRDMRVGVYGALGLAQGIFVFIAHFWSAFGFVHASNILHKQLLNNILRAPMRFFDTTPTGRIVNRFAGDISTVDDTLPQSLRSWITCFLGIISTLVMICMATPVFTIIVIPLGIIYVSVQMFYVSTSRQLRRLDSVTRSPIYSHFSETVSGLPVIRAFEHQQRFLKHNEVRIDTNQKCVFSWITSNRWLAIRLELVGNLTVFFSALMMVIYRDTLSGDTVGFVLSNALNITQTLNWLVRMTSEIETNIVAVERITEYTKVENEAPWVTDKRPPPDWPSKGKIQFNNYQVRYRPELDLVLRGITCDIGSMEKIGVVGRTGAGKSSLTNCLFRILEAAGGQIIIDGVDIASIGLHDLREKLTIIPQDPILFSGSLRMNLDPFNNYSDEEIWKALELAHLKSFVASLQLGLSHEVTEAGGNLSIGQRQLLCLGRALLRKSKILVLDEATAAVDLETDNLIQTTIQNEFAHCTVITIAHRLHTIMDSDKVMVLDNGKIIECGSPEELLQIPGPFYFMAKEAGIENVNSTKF
# measurementNotes: in vitro
# Format: biochemical
# testConditions: human
measuredMetric: inhibition at 5 min, 100 µM (%)

> print(dat)
                                   molecule               measuredmetric  measurednumber
1  O=C(NCc1c(F)cc(F)c(O)c1F)c1cn2c(c(O)c1=O)C(=O)N1[C@H]3CC[C@H](C3)O[C@@H]1C2 [Metabolite M23]  inhibition at 5 min, 100 µM              43

###

# measurementNotes: Phase 1 mass-balance study, [14C]bictegravir metabolite profiling in plasma, urine and feces
# testConditions: human plasma, AUC pool 0-72 h, single oral 100 mg [14C]bictegravir
measuredMetric: % of plasma AUC0-72 h of total radioactivity (%)

compound	measuredNumber
O=C(NCc1c(F)cc(F)c(OS(=O)(=O)O)c1F)c1cn2c(c(O)c1=O)C(=O)N1C(C2)O[C@@H]2CC[C@H]1C2 (stereo partly shown) [Metabolite M20]	20.1
O=C(NCc1c(F)cc(F)cc1F)c1cn2c(c(O)c1=O)C(=O)N1[C@H]3CC[C@H](C3)O[C@@H]1C2 [BIC, bictegravir, reference compound]	67.9
O=C(NCc1c(F)cc(F)cc1F)c1cn2c(c(O[C@@H]3O[C@H](C(=O)O)[C@@H](O)[C@H](O)[C@H]3O)c1=O)C(=O)N1[C@H]3CC[C@H](C3)O[C@@H]1C2 [Metabolite M15]	8.6
